Measured EC50, listed per entry.
TARGET OF ASSAY: recombinant hSIRPa (Sino Biologicals, reference 11612-H08H) (human) (UniProt P78324)
Sequence (P78324 31-370): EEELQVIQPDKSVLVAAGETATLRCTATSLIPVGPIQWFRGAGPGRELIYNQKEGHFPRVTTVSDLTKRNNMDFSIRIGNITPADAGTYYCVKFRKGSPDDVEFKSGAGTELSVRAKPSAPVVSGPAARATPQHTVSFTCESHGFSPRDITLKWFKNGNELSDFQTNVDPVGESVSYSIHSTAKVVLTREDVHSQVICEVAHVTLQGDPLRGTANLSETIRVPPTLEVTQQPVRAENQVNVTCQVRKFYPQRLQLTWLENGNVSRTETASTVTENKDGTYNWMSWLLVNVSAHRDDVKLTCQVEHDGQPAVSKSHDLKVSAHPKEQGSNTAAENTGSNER
METHOD: ELISA, hSIRPa (Sino 11612-H08H) coated at 0.5 ug/ml, anti-human IgG detection; first experiment
Answer with a number only, understood to be in ng/mL.

>>> value_measured("HALA (antibody, human IgG4 S228P, kappa, V domains shown) VH: EVQLVQSGAEVKKPGESLRISCKASGYTFTSYWVHWVRQMPGKGLEWIGNIDPSDSDTHYNQKFKDHVTLSVDKSISTAYLQLSSLKASDTAMYYCVRGGTGTMAWFAYWGQGTLVTVSS VL: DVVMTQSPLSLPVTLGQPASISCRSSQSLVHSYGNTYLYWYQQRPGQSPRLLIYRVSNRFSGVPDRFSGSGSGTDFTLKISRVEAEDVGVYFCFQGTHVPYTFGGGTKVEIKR")
3.9

Give its EC50 value. Item: HFLB (antibody, human IgG4 S228P, kappa, V domains shown) VH: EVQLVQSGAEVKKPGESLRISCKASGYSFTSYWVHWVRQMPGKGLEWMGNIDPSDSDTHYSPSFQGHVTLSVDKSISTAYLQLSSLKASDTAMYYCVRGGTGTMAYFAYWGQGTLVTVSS VL: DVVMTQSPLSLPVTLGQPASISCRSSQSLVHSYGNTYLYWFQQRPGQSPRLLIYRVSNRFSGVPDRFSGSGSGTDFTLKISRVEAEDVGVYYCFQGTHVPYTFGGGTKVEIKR 4

Give its EC50 value. Item: HFLA (antibody, human IgG4 S228P, kappa, V domains shown) VH: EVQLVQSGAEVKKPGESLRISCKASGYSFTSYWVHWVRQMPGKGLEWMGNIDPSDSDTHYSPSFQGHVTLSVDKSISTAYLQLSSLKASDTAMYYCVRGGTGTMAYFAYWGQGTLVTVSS VL: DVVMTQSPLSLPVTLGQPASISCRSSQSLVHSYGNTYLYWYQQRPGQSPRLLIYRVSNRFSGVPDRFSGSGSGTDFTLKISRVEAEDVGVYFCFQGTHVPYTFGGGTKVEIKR 5.1
